Data origin, for the record: PubChem BioAssay AID2060912

# System: HUVEC/MSC spheroids viability
# PROCEDURE TEXT: Human HUVEC/MSC cell line growth inhibition [KRAS2];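 also: percent of DMSO vehicle control luminescence so 100% = untreated viability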
# CONDITION DESCRIPTION: second compound 0.0949 µM; first compound 0.01 µM; stronger effect = lower value
The entries below are paired with their reported viability, T/C.
ENDPOINT LABEL: viability, T/C (%)

[[record]]
compound = "Cn1ncnc1[C@H]1c2n[nH]c(=O)c3cc(F)cc(c23)N[C@@H]1c1ccc(F)cc1 + C=CC(=O)N1CCN(c2nc(OCC3CCCN3C)nc3c2CCN(c2cccc4cccc(C)c24)C3)CC1CC#N"
measured_result = 81.2

[[record]]
compound = "CN(C)C/C=C/C(=O)Nc1cc2c(Nc3ccc(F)c(Cl)c3)ncnc2cc1O[C@H]1CCOC1 + C=CC(=O)N1CCN(c2nc(OCC3CCCN3C)nc3c2CCN(c2cccc4cccc(C)c24)C3)CC1CC#N"
measured_result = 79.8

[[record]]
compound = "CC(C)n1nc(-c2ccc3oc(N)nc3c2)c2c(N)ncnc21 + C=CC(=O)N1CCN(c2nc(OCC3CCCN3C)nc3c2CCN(c2cccc4cccc(C)c24)C3)CC1CC#N"
measured_result = 49

[[record]]
compound = "CCN1CCN(Cc2ccc(Nc3ncc(F)c(-c4cc(F)c5nc(C)n(C(C)C)c5c4)n3)nc2)CC1 + C=CC(=O)N1CCN(c2nc(OCC3CCCN3C)nc3c2CCN(c2cccc4cccc(C)c24)C3)CC1CC#N"
measured_result = 82


---

# System: HUVEC/MSC spheroids viability
# PROCEDURE TEXT: Human HUVEC/MSC cell line growth inhibition [KRAS2];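 also: percent of DMSO vehicle control luminescence so 100% = untreated viability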
# CONDITION DESCRIPTION: second compound 3.16 µM; first compound 1 µM; stronger effect = lower value
# Description: Multicellular complex tumor spheroid response to RAS pathway inhibitors in combination with a targeted agents in patient-derived cell lines with oncogenic KRAS variants from multiple cancer types A high-throughput screen of multi-cell type tumor spheroids was designed to identify active combinations of targeted small molecules and KRAS pathway inhibitors. […] Compounds. […] If the clinical Cmax for an agent had not been determined, the highest concentration tested was 10 microM. […]
ENDPOINT LABEL: viability, T/C (%)

[[record]]
molecule = "CC1OCC2(CCN(c3cnc(Sc4ccnc(N)c4Cl)c(N)n3)CC2)C1N (stereo not given) + C=CC(=O)N1CCN(c2nc(=O)n(-c3c(C)ccnc3C(C)C)c3nc(-c4c(O)cccc4F)c(F)cc23)C(C)C1"
measured_result = 92.7

[[record]]
molecule = "CCN1CCN(Cc2ccc(Nc3ncc(F)c(-c4cc(F)c5nc(C)n(C(C)C)c5c4)n3)nc2)CC1 + CC1OCC2(CCN(c3cnc(Sc4ccnc(N)c4Cl)c(N)n3)CC2)C1N"
measured_result = 87.2

[[record]]
molecule = "COc1cc(Nc2ncc3c(n2)-c2ccc(Cl)cc2C(c2c(F)cccc2OC)=NC3)ccc1C(=O)O + COc1cc2nc(C)nc(NC(C)c3cc(N)cc(C(F)(F)F)c3)c2cc1OC1CCOC1"
measured_result = 77

[[record]]
molecule = "CCN1CCN(Cc2ccc(Nc3ncc(F)c(-c4cc(F)c5nc(C)n(C(C)C)c5c4)n3)nc2)CC1 + CNCc1ccccc1-c1csc(C(C)Nc2nc(C)nc3cc(OC)c(OC)cc23)c1"
measured_result = 0.46

[[record]]
molecule = "CC1OCC2(CCN(c3cnc(Sc4ccnc(N)c4Cl)c(N)n3)CC2)C1N (stereo not given) + COc1cc2nc(C)nc(NC(C)c3cc(N)cc(C(F)(F)F)c3)c2cc1OC1CCOC1"
measured_result = 65

